Every entry's value here was drawn from patent US9133187B2.

# Measurement target: human ERK-2 (Mitogen Activated Kinase 1) (Homo sapiens (Human))
# Sequence (P28482 8-360): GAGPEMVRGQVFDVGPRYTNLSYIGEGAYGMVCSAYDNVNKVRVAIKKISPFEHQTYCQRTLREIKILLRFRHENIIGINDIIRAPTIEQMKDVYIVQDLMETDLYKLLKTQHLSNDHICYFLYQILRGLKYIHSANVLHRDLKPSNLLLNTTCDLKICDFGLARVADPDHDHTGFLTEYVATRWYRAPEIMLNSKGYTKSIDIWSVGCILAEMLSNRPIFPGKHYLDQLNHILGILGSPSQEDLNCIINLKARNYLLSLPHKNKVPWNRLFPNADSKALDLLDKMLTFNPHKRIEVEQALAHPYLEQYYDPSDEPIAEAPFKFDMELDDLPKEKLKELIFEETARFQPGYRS
# Experiment summary: ERK-2 Enzymatic Assay
# Experimental context: 5 nM ERK-2, 25 μM ATP, Omnia peptide S/T17; read-out: ERK Inhibition IC50
# Procedure: Compounds were tested in an enzymatic assay using human ERK-2 (Mitogen Activated Kinase 1), recombinantly expressed as an n-terminal 6-His fusion protein in E. coli and corresponding to aa 8-360. […] The assay was run at ambient temperature in a white 384-well polypropylene plate (Nunc, Inc of Naperville, Ill.; Cat. 267462) collecting data every 50 seconds for approximately 30 minutes on an Envision plate reader (PerkinElmer, Inc. of Waltham, Mass.); Excitation 340 nm/Emission 495 nm. […]
Recorded endpoint: IC50 (µM)

(A) O=C(NC(c1cn[nH]c1)c1ccc(Cl)c(F)c1)N1CCc2cnc(NC3CCOCC3)nc2C1 (centres unmarked) [Compound I-7]
(B) O=C(N1CCc2cnc(NC3CCOCC3)nc2C1)N1CCCC1c1nccs1 (centres unmarked) [Compound I-139]
Task item: Rank A against B by their IC50 values and give the higher one. Choose, then provide that item's label.
Reply: B
(B: 0.264 µM, A: 0.0015 µM)

(I) O=C(N[C@H](CO)c1ccc(F)c(Cl)c1)N1CCc2cnc(Nc3ccc(Cl)c(F)c3)nc2C1 [II-61]
(II) CC(C)Nc1ncc2c(n1)CN(C(=O)N[C@H](CCO)c1ccc(C(F)(F)F)c(F)c1)CC2 [II-72]
Task item: Two entries are listed, I and II . Which one carries the higher IC50? Identify your selection by its label.
Reply: I

(1) CC1(C)CC[C@@H]([C@@H](NC(=O)N2CCc3cnc(NC4CCOCC4)nc3C2)c2ccc(C(F)(F)F)cc2F)N1 [Compound I-86]
(2) CC[C@@H](NC(=O)N1CCc2cnc(NC3CCOCC3)nc2C1)c1ccc(OC(F)F)cc1 [Compound I-27]
(3) C[C@@H](CO)Nc1ncc2c(n1)CN(C(=O)N[C@@H](c1ccc(Cl)c(Cl)c1)C(F)(F)F)CC2 [Compound I-23]
Task item: Provide the items ranked by increasing IC50. Provide the ranking by listing each label in its place in the requested order.
Reply: 2, 3, 1
(2: 0.0015 µM, 3: 0.0032 µM, 1: 0.148 µM)

----------
# Measurement target: human ERK-2 (Mitogen Activated Kinase 1) (Homo sapiens (Human))
# Experiment summary: ERK-2 Enzymatic Assay
# Experimental context: 5 nM ERK-2, 25 μM ATP, Omnia peptide S/T17; read-out: ERK Inhibition IC50
pIC50: −log10 of the molar value.
Recorded endpoint: pIC50

// solved cases for pIC50 follow
Task item: Given the compound CC(C)Nc1ncc2c(n1)CN(C(=O)N[C@H](CCC#N)c1ccc(Cl)c(Cl)c1)CC2 , what is its reported pIC50?
Reply: 8.66

Task item: Look at this compound and give its reported pIC50. CS(=O)(=O)CC[C@@H](NC(=O)N1CCc2cnc(NC3CCOCC3)nc2C1)c1ccc(Cl)c(Cl)c1
Reply: 8.59

Task item: Can you look up the measured pIC50 of CC(NC(=O)N1CCc2cnc(NC3CCOCC3)nc2C1)c1ccc2cc[nH]c2c1 (stereo not shown) for me?
Reply: 8.57

Task item: Looking for the measured pIC50 of CC(C)Nc1ncc2c(n1)CN(C(=O)NC[C@H](c1ccc(C(F)(F)F)c(F)c1)N1CCCC1)CC2 , can you help?
Reply: 6.39

Task item: Which pIC50 is listed for COCCOC[C@@H](NC(=O)N1CCc2cnc(N[C@@H](C)CO)nc2C1)c1ccc(F)c(Cl)c1 ?
Reply: 7.75

Task item: Need pIC50, item CC(C)Nc1ncc2c(n1)CN(C(=O)N[C@H](CO)c1ccc(Cl)c(Cl)c1)CC2
Reply: 8.96

(1) C[C@@H](CO)Nc1ncc2c(n1)CN(C(=O)NCc1cccc3cc[nH]c13)CC2
(2) CC(C)Nc1ncc2c(n1)CN(C(=O)N[C@@H](c1ccc(Cl)c(Cl)c1)[C@H]1CCCN1C)CC2
Task item: In terms of reported pIC50, does 1 or 2 have the smaller number? // return label of chosen record
Reply: 1

(1) C[C@@H](NC(=O)N1CCc2cnc(NC3CCN(C)CC3)nc2C1)c1ccc(Cl)c(Cl)c1
(2) COC[C@@H](NC(=O)N1CCc2cnc(NCCO)nc2C1)c1ccc(Cl)c(Cl)c1
Task item: Parameter metric = pIC50. Return the lower-valued option from 1 and 2 . Refer to your chosen entry by its label in the reply.
Reply: 1
(1: 6.95, 2: 8.01)

(P) C[C@@H](CO)Nc1ncc2c(n1)CN(C(=O)NCc1nc3ccccc3o1)CC2
(Q) Cc1noc(C)c1Nc1ncc2c(n1)CN(C(=O)N[C@H](CO)c1ccc(F)c(Cl)c1)CC2
(R) CC(C)Nc1ncc2c(n1)CN(C(=O)N[C@H](CNc1ccncn1)c1ccc(F)c(Cl)c1)CC2
(S) C[C@@H](NC(=O)N1CCc2cnc(NC(CO)CO)nc2C1)c1ccc(Cl)c(Cl)c1
Task item: Arrange the 4 compounds by rising pIC50, starting with the smallest. Form entry: labels listed in requested order.
Reply: P, Q, S, R
